# Tested on: RXRa homodimer (NR concentration 180 nM)
# EXPERIMENT_SUMMARY: PBM binding z-score (relative to random genomic background probes); higher = stronger binding; sequences stand for … in GC…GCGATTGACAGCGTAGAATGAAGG
Rule: Criterion met for PBM binding z-score not less than 4, Criterion not met for anything less.

Worked cases, answers included:
{"RECORD_SEQUENCE": "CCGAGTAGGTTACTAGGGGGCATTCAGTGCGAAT", "ASSIGNED_CLASS": "Criterion not met"}
{"RECORD_SEQUENCE": "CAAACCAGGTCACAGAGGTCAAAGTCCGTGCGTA", "ASSIGNED_CLASS": "Criterion met"}

**Query** Test whether the sequence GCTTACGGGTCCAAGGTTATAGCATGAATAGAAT records PBM binding z-score of 4 or higher.
**Result** Criterion not met

**Query** Test whether the sequence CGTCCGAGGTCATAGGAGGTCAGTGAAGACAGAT records PBM binding z-score of 4 or higher.
**Result** Criterion met

**Query** Test whether the sequence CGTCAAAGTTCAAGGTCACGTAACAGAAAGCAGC records PBM binding z-score of 4 or higher.
**Result** Criterion met

**Query** Test whether the sequence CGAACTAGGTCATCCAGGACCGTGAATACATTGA records PBM binding z-score of 4 or higher.
**Result** Criterion not met

**Query** Test whether the sequence TAGCCTAGGGCATTCAGGGGCCAGTATAGAAAGC records PBM binding z-score of 4 or higher.
**Result** Criterion not met

====

Each item that follows carries a reported PBM binding z-score.
# Test system: RARb homodimer (NR concentration 270 nM)
# EXPERIMENT_SUMMARY: PBM binding z-score (relative to random genomic background probes); higher = stronger binding; sequences stand for … in GC…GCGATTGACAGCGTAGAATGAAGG
Would you mind answering with just the numeric figure?

Examples from the recorded data:
{"RECORD_SEQUENCE": "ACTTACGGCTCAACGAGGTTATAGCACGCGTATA", "PBM binding z-score": 0.526}
{"RECORD_SEQUENCE": "CGTCAAAGGTCAATGCTAGGTCAGTGAAAGCATT", "PBM binding z-score": 5.56}
{"RECORD_SEQUENCE": "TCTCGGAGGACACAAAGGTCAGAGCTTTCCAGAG", "PBM binding z-score": 4.77}
{"RECORD_SEQUENCE": "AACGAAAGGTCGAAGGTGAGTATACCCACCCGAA", "PBM binding z-score": 2.48}
{"RECORD_SEQUENCE": "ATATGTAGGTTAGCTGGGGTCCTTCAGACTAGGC", "PBM binding z-score": 0.736}

Field PBM binding z-score (entry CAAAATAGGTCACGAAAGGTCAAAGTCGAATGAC ) reads 5.79

Field PBM binding z-score (entry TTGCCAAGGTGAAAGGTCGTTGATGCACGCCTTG ) reads 2.56

Field PBM binding z-score (entry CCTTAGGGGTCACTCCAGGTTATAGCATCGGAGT ) reads 4.71

Field PBM binding z-score (entry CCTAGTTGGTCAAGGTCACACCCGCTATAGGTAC ) reads 4.39

Field PBM binding z-score (entry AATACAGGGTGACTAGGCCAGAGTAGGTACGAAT ) reads 0.729

Field PBM binding z-score (entry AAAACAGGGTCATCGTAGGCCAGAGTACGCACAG ) reads 3.68

Field PBM binding z-score (entry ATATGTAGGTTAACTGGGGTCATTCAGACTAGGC ) reads 4.28

Field PBM binding z-score (entry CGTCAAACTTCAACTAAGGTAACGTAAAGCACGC ) reads 0.665

Data provenance: the supplement of paper PMC6555819
